pIC50 by entry:
molecular target: NAMPT (Homo sapiens (Human)); test: Biochemical Inhibition Assay (NAMPT enzymatic reaction, NMN quantified by mass spectrometry); conditions: recombinant His-tagged NAMPT, 33 nM; 1 μM NAM; read-out: Biochem IC50
# pIC50: negative log10 of molar concentration; output just the value

smiles.repr	pIC50
Cc1ccc(S(=O)(=O)c2ccc(NC(=O)/C=C/c3cccnc3)cc2)cc1Cl	8.07
CCS(=O)(=O)c1cccc(S(=O)(=O)c2ccc(NC(=O)/C=C/c3cccnc3)cc2)c1	7.76
O=C(/C=C/c1cccnc1)Nc1ccc(S(=O)(=O)c2ccc(Cl)c(Cl)c2)cc1	7.14

Now let's try a different one.
Problem: Can you share its pIC50? I mean this compound: O=C(/C=C/c1cccnc1)Nc1ccc(S(=O)(=O)c2ccc(C(F)(F)F)cc2)cc1
Result: 7.25

----------
target: NAMPT (Homo sapiens (Human), UniProt P43490); assay: Biochemical Inhibition Assay (NAMPT enzymatic reaction, NMN quantified by mass spectrometry); conditions: recombinant His-tagged NAMPT, 33 nM; 1 μM NAM; read-out: Biochem IC50
Sequence (P43490 whole entry): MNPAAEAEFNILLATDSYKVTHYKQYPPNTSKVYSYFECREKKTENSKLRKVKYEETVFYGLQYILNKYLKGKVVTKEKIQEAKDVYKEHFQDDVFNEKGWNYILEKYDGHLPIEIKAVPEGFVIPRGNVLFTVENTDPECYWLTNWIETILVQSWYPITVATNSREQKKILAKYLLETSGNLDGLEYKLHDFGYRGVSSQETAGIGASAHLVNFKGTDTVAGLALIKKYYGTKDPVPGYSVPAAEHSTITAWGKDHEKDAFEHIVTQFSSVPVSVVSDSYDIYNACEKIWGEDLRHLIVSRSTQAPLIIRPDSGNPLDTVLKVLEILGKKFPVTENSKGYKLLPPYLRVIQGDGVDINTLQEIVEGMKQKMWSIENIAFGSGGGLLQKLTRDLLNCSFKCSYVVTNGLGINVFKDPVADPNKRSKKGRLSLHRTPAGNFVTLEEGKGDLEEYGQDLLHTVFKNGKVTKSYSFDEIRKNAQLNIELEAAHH
reported.metric: IC50 (nM)
Numeric only. Scale: nM

Some entries whose results are on file:
smiles.repr	numeric.value
O=C(/C=C/c1cccnc1)Nc1ccc(S(=O)(=O)c2cccc3cc[nH]c23)cc1	8.4
O=C(/C=C/c1cccnc1)Nc1ccc(S(=O)(=O)c2cccc3c2Oc2ccccc2S3)cc1	7.2
CS(=O)(=O)Nc1cccc(S(=O)(=O)c2ccc(NC(=O)/C=C/c3cccnc3)cc2)c1	7.5
O=C(/C=C/c1cccnc1)Nc1ccc(S(=O)(=O)c2ccc(OC(F)(F)F)cc2)cc1	167
COc1ccc(S(=O)(=O)c2ccc(NC(=O)/C=C/c3cccnc3)cc2)cc1C	17.1
CCOc1cc(Cl)ccc1S(=O)(=O)c1ccc(NC(=O)/C=C/c2cccnc2)cc1	4.2

Problem: Can you share its IC50? I mean this compound: O=C(/C=C/c1cccnc1)Nc1ccc(S(=O)(=O)c2cccc(F)c2)cc1
Result: 66.4

Problem: Can you share its IC50? I mean this compound: Cn1cc(S(=O)(=O)c2ccc(NC(=O)/C=C/c3cccnc3)cc2)cn1
Result: 7.7

Problem: Can you share its IC50? I mean this compound: O=C(/C=C/c1cccnc1)Nc1ccc(S(=O)(=O)c2cccc3c2oc2ccccc23)cc1
Result: 3.5

----------
target: NAMPT (Homo sapiens (Human)); assay: Biochemical Inhibition Assay (NAMPT enzymatic reaction, NMN quantified by mass spectrometry); conditions: recombinant His-tagged NAMPT, 33 nM; 1 μM NAM; read-out: Biochem IC50
reported.metric: IC50 (nM)
Numeric only. Scale: nM

Some entries whose results are on file:
smiles.repr	numeric.value
O=C(/C=C/c1cccnc1)Nc1ccc(S(=O)(=O)c2ccc3c(c2)OCO3)cc1	9.9
O=C(/C=C/c1cccnc1)Nc1ccc(S(=O)(=O)c2cccc(N3CCOCC3)c2)cc1	9.2
Cc1ncccc1S(=O)(=O)c1ccc(NC(=O)/C=C/c2cccnc2)cc1	9

Now let's try a different one.
Problem: Given the entry COc1cc(Cl)ccc1S(=O)(=O)c1ccc(NC(=O)/C=C/c2cccnc2)cc1 , what IC50 was observed with NAMPT (Homo sapiens (Human))?
Result: 7.3

----------
molecular target: NAMPT (Homo sapiens (Human)); test: Biochemical Inhibition Assay (NAMPT enzymatic reaction, NMN quantified by mass spectrometry); details: recombinant His-tagged NAMPT, 33 nM; 1 μM NAM; read-out: Biochem IC50
reported.metric: pIC50
# pIC50: negative log10 of molar concentration; output just the value

Problem: Can you share its pIC50? I mean this molecule: COc1cncc(S(=O)(=O)c2ccc(NC(=O)/C=C/c3cccnc3)cc2)c1
Result: 7.81

Problem: Can you share its pIC50? I mean this molecule: CCOc1ccc(Cl)cc1S(=O)(=O)c1ccc(NC(=O)/C=C/c2cccnc2)cc1
Result: 7.91

Problem: Can you share its pIC50? I mean this molecule: COc1ccc(OC(F)(F)F)cc1S(=O)(=O)c1ccc(NC(=O)/C=C/c2cccnc2)cc1
Result: 7.77

Problem: Can you share its pIC50? I mean this molecule: O=C(/C=C/c1cccnc1)Nc1ccc(S(=O)(=O)c2cccc(C(=O)NC3CCCC3)c2)cc1
Result: 7.79
